Just for reference, the antibiotic and cytotoxicity screens of Wong et al. (2023) is where these values come from.

System: S. aureus RN4220
Assay: growth inhibition call (relative growth <= 0.2)
Settings: 50 µM
Out of some 39,000 compounds screened, about 500 (1.3%) were called active. This is one part of a sample in which actives are shown more often than they occur.
Classes used: active, inactive

| compound | assigned.label |
| --- | --- |
| C[C@@H]1CN([C@H](C)CO)S(=O)(=O)c2ccc(-c3ccncc3)cc2O[C@H]1CN(C)C(=O)c1ccc2c(c1)OCO2 | inactive |
| CN1CCN(c2c(F)cc3c(=O)c(C(=O)O)cn(CCF)c3c2F)CC1 | active |
| C[C@@H]1CCCCO[C@@H](CN(C)CC2CCCCC2)[C@@H](C)CN([C@@H](C)CO)C(=O)c2cc(NC(=O)C3CCCCC3)ccc2O1 | inactive |
| C[C@H](CO)N1C[C@H](C)[C@@H](CN(C)C(=O)Nc2ccccc2)Oc2c(NC(=O)C3CCOCC3)cccc2C1=O | inactive |
| CCN1CCN(C(=O)N[C@@H](C(=O)N[C@@H]2C(=O)N3[C@@H]2SC(C)(C)[C@@H]3C(=O)O)c2ccccc2)C(=O)C1=O | active |
| C[C@@H]1CN([C@H](C)CO)C(=O)Cc2cc(NC(=O)Nc3ccc(C(F)(F)F)cc3)ccc2O[C@@H]1CN(C)C(=O)Nc1cccc2ccccc12 | inactive |
| C[C@@H]1CN([C@H](C)CO)C(=O)c2cc(NC(=O)Nc3cccc4ccccc34)ccc2O[C@@H]1CN(C)Cc1ccccc1 | inactive |
| CC1(C)[C@@H](OC(=O)CCC(=O)O)CC[C@]2(C)[C@H]3C(=O)C=C4[C@@H]5C[C@@](C)(C(=O)O)CC[C@]5(C)CC[C@@]4(C)[C@]3(C)CC[C@@H]12 | inactive |
| C[C@H]1CN([C@@H](C)CO)C(=O)c2cccc(NS(=O)(=O)c3cn(C)cn3)c2O[C@H]1CN(C)S(=O)(=O)c1cn(C)cn1 | inactive |
| O=C(CN1CCOCC1)NCC[C@H]1CC[C@@H](NC(=O)c2ccccc2F)[C@H](CO)O1 | inactive |
| Cn1sc(=O)n(Cc2ccccc2)c1=O | active |
| CN1CCN(c2c(F)cc3c(=O)c(C(=O)O)cn4c3c2SCC4)CC1 | active |
| CC(C)NC(=O)N(C)C[C@H]1Oc2ccc(NC(=O)CCC(F)(F)F)cc2C(=O)N([C@H](C)CO)C[C@@H]1C | inactive |
| C[C@H]1CN([C@@H](C)CO)C(=O)CCCn2cc(nn2)CO[C@H]1CN(C)S(=O)(=O)c1ccc(C#N)cc1 | inactive |
| Cc1noc(C)c1NC(=O)Nc1ccc2c(c1)C(=O)N([C@H](C)CO)C[C@@H](C)[C@@H](CN(C)S(=O)(=O)c1ccc(Cl)cc1)OCCCC[C@H](C)O2 | inactive |
| Clc1ccc(C(c2ccc(Cl)cc2)[n+]2ccn(C[C@@H](OCc3ccc(Cl)cc3Cl)c3ccc(Cl)cc3Cl)c2)cc1 | inactive |
| CCN1CCN(C(=O)NC(C(=O)NC2C(=O)N3C2SC(C)(C)C3C(=O)[O-])c2ccccc2)C(=O)C1=O.[Na+] (configuration not stated) | active |
| CCO[C@@H]1OC(C(=O)N2CCOCC2)=C[C@H](c2ccccc2)[C@H]1CCCOC(=O)NCCCCCC(=O)NO | inactive |
| C[C@@H]1CN([C@@H](C)CO)S(=O)(=O)c2ccc(C#CCN(C)C)cc2O[C@@H]1CN(C)C(=O)C1CCCCC1 | inactive |
| CCCCC[C@@H](O)C[C@@H](O)CC(=O)O[C@@H](CCCCC)C[C@@H](O)CC(=O)OC[C@@H](O)[C@@H](O)[C@@H](O)[C@@H](O)CO | inactive |
| CC(C)NC(=O)N(C)C[C@@H]1Oc2c(NS(=O)(=O)c3ccccc3)cccc2C(=O)N([C@@H](C)CO)C[C@H]1C | inactive |
| NC[C@@H]1CCCO1 | inactive |
| COc1ccc2c3c([nH]c2c1)[C@@H](CO)N(C[C@]13CN(C1)S(=O)(=O)c1cccs1)C(=O)c1ccccc1 | inactive |
| C[C@H](CO)N1C[C@H](C)[C@H](CN(C)S(=O)(=O)c2ccc(Cl)cc2)Oc2c(NC(=O)C3CCOCC3)cccc2C1=O | inactive |
| C[C@@H]1CN([C@@H](C)CO)C(=O)c2cc(NC(=O)Cc3ccccc3)ccc2O[C@@H](C)CCCCO[C@H]1CN(C)C(=O)Nc1cccc2ccccc12 | inactive |
| C[C@H](CO)N1C[C@H](C)[C@H](CN(C)Cc2cccc(F)c2)Oc2cc(C#CC3CC3)ccc2S1(=O)=O | inactive |
| CC1(C)S[C@@H]2[C@H](NC(=O)[C@H](NC(=O)N3CCNC3=O)c3ccccc3)C(=O)N2[C@H]1C(=O)O | inactive |
| COc1ccc([Si](C)(C)[C@H]2[C@H](CC(=O)N3CCC[C@H]3CO)O[C@@]3(C(=O)N(Cc4ccc(N5CCCCC5=O)cc4)c4ccccc43)[C@@H]2C)cc1 | inactive |
| COc1ccc2c3c([nH]c2c1)[C@H](CO)N(C[C@]13CN(Cc2cc(on2)-c2ccccc2)C1)C(=O)Nc1ccc(cc1)F | inactive |
| Cc1occc1CN | inactive |
| Cc1cnccc1CN1C[C@H](C(=O)O)CC1=O | inactive |
| Cn1c(=O)sn(-c2ccccc2)c1=O | inactive |

----------
Test system: S. aureus RN4220
Experiment: growth inhibition call (relative growth <= 0.2)
Conditions: 50 µM
Among all 39,000 compounds or so, about 500 (1.3%) were called active. This is one part of a sample in which actives are shown more often than they occur.
Classes used: active, inactive

| compound | assigned.label |
| --- | --- |
| CC(=O)NC[C@H]1CN(c2ccc(N3CCN(C(=O)CO)CC3)c(F)c2)C(=O)O1 | active |
| CC(=O)NCC1CN(c2ccc(N3CCOCC3)c(F)c2)C(=O)O1 (stereo not given) | active |
| OC1OC(c2ccc(Cl)c(Cc3ccc(OC4CCOC4)cc3)c2)C(O)C(O)C1O (stereo not given) | inactive |
| Cc1cccc(N2C[C@@H](CN)OC2=O)c1 | inactive |
| O=C(N[C@H]1C=C[C@H](CC(=O)N2CCOCC2)O[C@@H]1CO)c1ccc2c(c1)OCO2 | inactive |

----------
Test system: S. aureus RN4220
Assay: growth inhibition call (relative growth <= 0.2)
Conditions: 50 µM
The whole screen tested about 39,000 compounds, of which about 500 (1.3%) were called active. This excerpt belongs to a sample that is enriched for actives.
readout: growth inhibition call

| substance.smiles | observed |
| --- | --- |
| C[C@@H]1CN([C@@H](C)CO)C(=O)c2cc(NC(=O)Nc3ccc(F)cc3)ccc2O[C@@H](C)CCCCO[C@@H]1CN(C)C(=O)NC1CCCCC1 | inactive |
| C[C@@H]1CN([C@@H](C)CO)C(=O)c2cc(NS(=O)(=O)c3ccccc3)ccc2O[C@@H](C)CCCCO[C@@H]1CN(C)Cc1ccc2c(c1)OCO2 | inactive |
| CCCC#Cc1cnc2c(c1)C(=O)N([C@@H](C)CO)C[C@H](C)[C@@H](CN(C)S(=O)(=O)c1cn(C)cn1)O2 | inactive |
| Cc1cc(C(=O)c2cc3cc(Cl)ccc3o2)ccc1Cl | inactive |

----------
Tested on: S. aureus RN4220
Assay: growth inhibition call (relative growth <= 0.2)
Details: 50 µM
The whole screen tested about 39,000 compounds, of which about 500 (1.3%) were called active. Many of the other results were omitted from the sample, so actives are more common in it than they were.
Classes used: active, inactive

| substance.smiles | assigned.label |
| --- | --- |
| Cc1noc(C)c1NC(=O)N(C)C[C@H]1OCCCC[C@@H](C)Oc2ccc(NC(=O)CCC(F)(F)F)cc2C(=O)N([C@@H](C)CO)C[C@@H]1C | inactive |
| C[C@H]1CN([C@@H](C)CO)C(=O)Cc2cc(NS(=O)(=O)c3cccs3)ccc2O[C@@H]1CN(C)C(=O)Nc1cccc2ccccc12 | inactive |
| [N-]=[N+]=N[C@]1(CO)O[C@@H](n2ccc(N)nc2=O)[C@@H](O)[C@@H]1O | inactive |
| Cc1ccc(S(=O)(=O)Nc2ccc3c(c2)C(=O)N(C)[C@H]2CC[C@@H](CC(=O)NCCc4ccncc4)O[C@H]2CO3)cc1 | inactive |
| Cc1noc(C)c1S(=O)(=O)Nc1ccc2c(c1)CC(=O)N([C@@H](C)CO)C[C@H](C)[C@H](CN(C)S(=O)(=O)c1ccccc1)O2 | inactive |
| NCc1cn(-c2ccccc2)nc1C12CC3CC(CC(C3)C1)C2 | active |
| CC(C)(C)[S@@+]([O-])N1Cc2cc(C(=O)NCc3ccc4c(c3)OCO4)nc(-c3ccc(-c4ccc(C#N)cc4)cc3)c2[C@H]1CCO | inactive |
